assayTarget: T1, human ASGR-1 mutant construct H203 (human, UniProt P07306 1-291)
T1 construct: Arg/Glu scanning: non-arginine residues were changed to arginine; Transiently expressed on CHO-S cells
T1 sequence: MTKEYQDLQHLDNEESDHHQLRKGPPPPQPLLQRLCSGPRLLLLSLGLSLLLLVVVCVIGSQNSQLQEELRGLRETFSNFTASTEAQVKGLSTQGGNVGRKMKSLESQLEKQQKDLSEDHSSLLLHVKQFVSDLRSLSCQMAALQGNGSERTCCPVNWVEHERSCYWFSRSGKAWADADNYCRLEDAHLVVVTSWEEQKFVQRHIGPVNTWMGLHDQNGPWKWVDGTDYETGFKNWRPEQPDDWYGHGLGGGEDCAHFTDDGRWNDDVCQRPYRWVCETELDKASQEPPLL
test: FACS ratio: H203 normalized value / wt normalized value
measuredEndpoint: Normalization to wt ASGR1 Binding
A bare number is all that is needed in reply.

INSERT INTO results (binder, readoutvalue) VALUES
  ('60C12 (antibody, V domains shown, mAb) VH: QVQLVESGGGVVQPGRSLRLSCAASGFTFSSYGMHWVRQAPGKGLEWVAVIWYDGSNKYYVDSVKGRFTISRDNSKNTLYLQMNSLRAEDTAVYYCARRYSRSWTGGMDVWGQGTTVTVSS VL: DIVMTQTPLSLSVTPGQPASISCKSSQSLLHSEGKTYLYWYLQKPGQPPQFLIYEVSNRFSGVPDRFSGSGSGTDFTLKISRVEAEDVGIYYCMQSIKYPLTFGGGTKVEIK', 0.725);

stdin: Please look up its Normalization to wt ASGR1 Binding: 193E7 (antibody, V domains shown, mAb) VH: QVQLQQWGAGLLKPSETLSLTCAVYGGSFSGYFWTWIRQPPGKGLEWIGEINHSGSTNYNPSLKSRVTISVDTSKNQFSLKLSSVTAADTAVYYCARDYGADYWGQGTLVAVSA VL: DIQMTQSPSSLSASVGDRVTITCRASQGIRNDLGWYQQKPGKAPKRLIYSASSLQRGVPSRFSGSGSGTEFTLTISSLQPEDFATYYCLQHKRYPLTFGGGTKVEIK
stdout: 1.18
